test system: NCI-H1618 multicellular tumor spheroid viability; experiment: Anticancer human tumor NCI-H1618 cell line growth inhibition; conditions: second compound 3.16 µM; first compound 0.316 µM; stronger effect = lower value;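 note: spheroids exposed to agents for 7 days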
// returns No unless viability, T/C is strictly below 20%, in which case Yes

>  <molecule>
CC(C)n1c(=O)n(C)c2cnc3cc(F)c(-c4ccc(OCCCN5CCCCC5)nc4)cc3c21 + Cn1nnc2c(C(N)=O)ncn2c1=O

>  <label-class>
No

$$$$
>  <molecule>
[2H]c1nc(C)nc([2H])c1-c1cc(NC[C@@H](C)c2cccc3c(C(=O)NC)ccnc23)ncn1 + Cn1nnc2c(C(N)=O)ncn2c1=O

>  <label-class>
No

$$$$
>  <molecule>
Cc1cc(C)c(CNC(=O)c2cc(-c3ccc(CN4CCOCC4)cc3)cc3c2cnn3C2CCCC2)c(=O)[nH]1 + Cn1nnc2c(C(N)=O)ncn2c1=O

>  <label-class>
Yes

$$$$
>  <molecule>
COc1ccc([C@@H](O)c2cc(-c3ncnc4cc(N5CCOCC5)ccc34)c(F)cc2Cl)nn1 + Cn1nnc2c(C(N)=O)ncn2c1=O

>  <label-class>
Yes

$$$$
>  <molecule>
CC1COCCN1c1cc(-c2ccnn2C)c2ccnc(-c3ccn[nH]3)c2n1 (stereo unspecified) + Cn1nnc2c(C(N)=O)ncn2c1=O

>  <label-class>
Yes

$$$$

---

system: NCI-H1618 multicellular tumor spheroid viability; assay: Anticancer human tumor NCI-H1618 cell line growth inhibition; conditions: second compound 10 µM; first compound 0.949 µM; active = viability on the fitted dose curve at most 10% of control; inactive = the rest;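 note: spheroids exposed to agents for 7 days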
Possible outcomes: active, inactive

>  <compound>
CNCc1ccc(-c2cc(-c3nc(-c4ccc(S(=O)(=O)C(C)C)cc4)cnc3N)on2)cc1 + Cn1nnc2c(C(N)=O)ncn2c1=O

>  <label-class>
active

$$$$
>  <compound>
O=C(c1cc(Cc2n[nH]c(=O)c3ccccc23)ccc1F)N1CCN(C(=O)C2CC2)CC1 + Cn1nnc2c(C(N)=O)ncn2c1=O

>  <label-class>
inactive

$$$$
>  <compound>
Cc1sc2c(c1C)C(c1ccc(Cl)cc1)=NC(CC(=O)Nc1ccc(O)cc1)c1nnc(C)n1-2 (centres undefined) + Cn1nnc2c(C(N)=O)ncn2c1=O

>  <label-class>
active

$$$$
>  <compound>
Cn1ncnc1[C@H]1c2n[nH]c(=O)c3cc(F)cc(c23)N[C@@H]1c1ccc(F)cc1 + Cn1nnc2c(C(N)=O)ncn2c1=O

>  <label-class>
active

$$$$

---

test system: NCI-H1618 multicellular tumor spheroid viability; experiment: Anticancer human tumor NCI-H1618 cell line growth inhibition; conditions: second compound 10 µM; first compound 0.0949 µM; stronger effect = lower value;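 note: spheroids exposed to agents for 7 days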
endpoint: viability, T/C (%)

>  <molecule>
Cn1ncnc1[C@H]1c2n[nH]c(=O)c3cc(F)cc(c23)N[C@@H]1c1ccc(F)cc1 + Cn1nnc2c(C(N)=O)ncn2c1=O

>  <endpoint>
viability, T/C

>  <data-value>
2.45

$$$$
>  <molecule>
CNCc1ccc(-c2cc(-c3nc(-c4ccc(S(=O)(=O)C(C)C)cc4)cnc3N)on2)cc1 + Cn1nnc2c(C(N)=O)ncn2c1=O

>  <endpoint>
viability, T/C

>  <data-value>
3.76

$$$$
>  <molecule>
O=C(c1cc(Cc2n[nH]c(=O)c3ccccc23)ccc1F)N1CCN(C(=O)C2CC2)CC1 + Cn1nnc2c(C(N)=O)ncn2c1=O

>  <endpoint>
viability, T/C

>  <data-value>
24.5

$$$$
>  <molecule>
Cc1sc2c(c1C)C(c1ccc(Cl)cc1)=NC(CC(=O)Nc1ccc(O)cc1)c1nnc(C)n1-2 (centres undefined) + Cn1nnc2c(C(N)=O)ncn2c1=O

>  <endpoint>
viability, T/C

>  <data-value>
5.98

$$$$

---

system: NCI-H1618 multicellular tumor spheroid viability; test: Anticancer human tumor NCI-H1618 cell line growth inhibition; conditions: second compound 0.003 µM; first compound 0.3 µM; stronger effect = lower value;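 note: spheroids exposed to agents for 7 days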
// classify: if (viability, T/C < 60%) Fulfilled else Not fulfilled

>  <compound>
O=C(c1cc(Cc2n[nH]c(=O)c3ccccc23)ccc1F)N1CCN(C(=O)C2CC2)CC1 + CC[C@@]1(O)C(=O)OCc2c1cc1n(c2=O)Cc2cc3c(CN(C)C)c(O)ccc3nc2-1

>  <label-class>
Not fulfilled

$$$$
>  <compound>
Cn1ncnc1[C@H]1c2n[nH]c(=O)c3cc(F)cc(c23)N[C@@H]1c1ccc(F)cc1 + CC[C@@]1(O)C(=O)OCc2c1cc1n(c2=O)Cc2cc3c(CN(C)C)c(O)ccc3nc2-1

>  <label-class>
Fulfilled

$$$$
>  <compound>
O=C(c1cc(Cc2n[nH]c(=O)c3ccccc23)ccc1F)N1CCN(C(=O)C2CC2)CC1 + COc1cc2c(cc1O)CCNC21CSC2c3c(OC(C)=O)c(C)c4c(c3C(COC1=O)N1C(O)C3Cc5cc(C)c(OC)c(O)c5C(C21)N3C)OCO4

>  <label-class>
Fulfilled

$$$$
>  <compound>
Cc1sc2c(c1C)C(c1ccc(Cl)cc1)=NC(CC(=O)Nc1ccc(O)cc1)c1nnc(C)n1-2 (stereo not given) + COc1cc2c(cc1O)CCNC21CSC2c3c(OC(C)=O)c(C)c4c(c3C(COC1=O)N1C(O)C3Cc5cc(C)c(OC)c(O)c5C(C21)N3C)OCO4

>  <label-class>
Fulfilled

$$$$

---

tested on: NCI-H1618 multicellular tumor spheroid viability; experiment: Anticancer human tumor NCI-H1618 cell line growth inhibition; conditions: second compound 94.9 pM; first compound 0.0316 µM; stronger effect = lower value;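 note: spheroids exposed to agents for 7 days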
Measured viability, T/C values are reported for all entries that follow.
endpoint: viability, T/C (%)

>  <compound>
COc1cc(C)[nH]c(=O)c1CN1CCc2c(Cl)cc(C(OC)C3COC3)c(Cl)c2C1=O (stereo unspecified) + COc1cc2c(cc1O)CCNC21CSC2c3c(OC(C)=O)c(C)c4c(c3C(COC1=O)N1C(O)C3Cc5cc(C)c(OC)c(O)c5C(C21)N3C)OCO4

>  <endpoint>
viability, T/C

>  <unit-descriptor>
%

>  <data-value>
86.8

$$$$
>  <compound>
Cc1cc(C)c(CNC(=O)c2cc(-c3ccc(CN4CCOCC4)cc3)cc3c2cnn3C2CCCC2)c(=O)[nH]1 + COc1cc2c(cc1O)CCNC21CSC2c3c(OC(C)=O)c(C)c4c(c3C(COC1=O)N1C(O)C3Cc5cc(C)c(OC)c(O)c5C(C21)N3C)OCO4

>  <endpoint>
viability, T/C

>  <unit-descriptor>
%

>  <data-value>
46.9

$$$$
>  <compound>
[2H]c1nc(C)nc([2H])c1-c1cc(NC[C@@H](C)c2cccc3c(C(=O)NC)ccnc23)ncn1 + COc1cc2c(cc1O)CCNC21CSC2c3c(OC(C)=O)c(C)c4c(c3C(COC1=O)N1C(O)C3Cc5cc(C)c(OC)c(O)c5C(C21)N3C)OCO4

>  <endpoint>
viability, T/C

>  <unit-descriptor>
%

>  <data-value>
90.6

$$$$
>  <compound>
COc1ccc([C@@H](O)c2cc(-c3ncnc4cc(N5CCOCC5)ccc34)c(F)cc2Cl)nn1 + COc1cc2c(cc1O)CCNC21CSC2c3c(OC(C)=O)c(C)c4c(c3C(COC1=O)N1C(O)C3Cc5cc(C)c(OC)c(O)c5C(C21)N3C)OCO4

>  <endpoint>
viability, T/C

>  <unit-descriptor>
%

>  <data-value>
75.4

$$$$
>  <compound>
CC1COCCN1c1cc(-c2ccnn2C)c2ccnc(-c3ccn[nH]3)c2n1 (stereo unspecified) + COc1cc2c(cc1O)CCNC21CSC2c3c(OC(C)=O)c(C)c4c(c3C(COC1=O)N1C(O)C3Cc5cc(C)c(OC)c(O)c5C(C21)N3C)OCO4

>  <endpoint>
viability, T/C

>  <unit-descriptor>
%

>  <data-value>
4.76

$$$$
>  <compound>
CC(C)n1c(=O)n(C)c2cnc3cc(F)c(-c4ccc(OCCCN5CCCCC5)nc4)cc3c21 + COc1cc2c(cc1O)CCNC21CSC2c3c(OC(C)=O)c(C)c4c(c3C(COC1=O)N1C(O)C3Cc5cc(C)c(OC)c(O)c5C(C21)N3C)OCO4

>  <endpoint>
viability, T/C

>  <unit-descriptor>
%

>  <data-value>
46.2

$$$$

---

Listing of recorded viability, T/C by entry.
tested on: NCI-H1618 multicellular tumor spheroid viability; assay: Anticancer human tumor NCI-H1618 cell line growth inhibition; details: second compound 0.3 µM; first compound 1 µM; stronger effect = lower value;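 note: spheroids exposed to agents for 7 days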

>  <molecule>
COc1ccc([C@@H](O)c2cc(-c3ncnc4cc(N5CCOCC5)ccc34)c(F)cc2Cl)nn1 + CC[C@@]1(O)C(=O)OCc2c1cc1n(c2=O)Cc2cc3c(CN(C)C)c(O)ccc3nc2-1

>  <system-name>
NCI-H1618 multicellular tumor spheroid viability

>  <unit-descriptor>
%

>  <viability, T/C>
2.64

$$$$
>  <molecule>
COc1cc(C)[nH]c(=O)c1CN1CCc2c(Cl)cc(C(OC)C3COC3)c(Cl)c2C1=O (stereo unspecified) + CC[C@@]1(O)C(=O)OCc2c1cc1n(c2=O)Cc2cc3c(CN(C)C)c(O)ccc3nc2-1

>  <system-name>
NCI-H1618 multicellular tumor spheroid viability

>  <unit-descriptor>
%

>  <viability, T/C>
1.4

$$$$
>  <molecule>
Cc1cc(C)c(CNC(=O)c2cc(-c3ccc(CN4CCOCC4)cc3)cc3c2cnn3C2CCCC2)c(=O)[nH]1 + CC[C@@]1(O)C(=O)OCc2c1cc1n(c2=O)Cc2cc3c(CN(C)C)c(O)ccc3nc2-1

>  <system-name>
NCI-H1618 multicellular tumor spheroid viability

>  <unit-descriptor>
%

>  <viability, T/C>
1.34

$$$$
>  <molecule>
CC(C)n1c(=O)n(C)c2cnc3cc(F)c(-c4ccc(OCCCN5CCCCC5)nc4)cc3c21 + CC[C@@]1(O)C(=O)OCc2c1cc1n(c2=O)Cc2cc3c(CN(C)C)c(O)ccc3nc2-1

>  <system-name>
NCI-H1618 multicellular tumor spheroid viability

>  <unit-descriptor>
%

>  <viability, T/C>
4.09

$$$$
>  <molecule>
[2H]c1nc(C)nc([2H])c1-c1cc(NC[C@@H](C)c2cccc3c(C(=O)NC)ccnc23)ncn1 + CC[C@@]1(O)C(=O)OCc2c1cc1n(c2=O)Cc2cc3c(CN(C)C)c(O)ccc3nc2-1

>  <system-name>
NCI-H1618 multicellular tumor spheroid viability

>  <unit-descriptor>
%

>  <viability, T/C>
14.1

$$$$
>  <molecule>
CC1COCCN1c1cc(-c2ccnn2C)c2ccnc(-c3ccn[nH]3)c2n1 (stereo unspecified) + CC[C@@]1(O)C(=O)OCc2c1cc1n(c2=O)Cc2cc3c(CN(C)C)c(O)ccc3nc2-1

>  <system-name>
NCI-H1618 multicellular tumor spheroid viability

>  <unit-descriptor>
%

>  <viability, T/C>
1.45

$$$$
